The following compounds are shown together with reported inhibition values.
- Tested system: Virion infectivity factor (Human immunodeficiency virus type 1 group M subtype B (isolate BH10)) + Virion infectivity factor (Human immunodeficiency virus type 1 group M subtype B (isolate BRU/LAI)) + Virion infectivity factor (Human immunodeficiency virus type 1 group M subtype B (isolate PCV12)) + Virion infectivity factor (Human immunodeficiency virus type 1 group M subtype B (isolate HXB2)) + DNA dC->dU-editing enzyme APOBEC-3G (Homo sapiens) (UniProt P69720+P69721+P69722+P69723+Q9HC16)
- Assay info: inhibitors of Vif binding to APOBEC3G peptide, primary screen, biochemical, TR-FRET, GST-Vif 1-94, biotin-A3G peptide, dose response retest (AID 1117319);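 note: Vif residues 1-94 fused to GST binding biotinylated APOBEC3G peptide 110-148; 0% = full assay without inhibitor and 100% = GST in place of GST-Vif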
- Condition summary: active compounds read high
Among all 260,000 compounds or so, about 1,500 (0.58%) were called active. Inconclusive results (about 5%) are left out. The list is a sample of the results. Potency and affinity values are given separately.
// note: answer is a bare numeric in %

// solved cases for inhibition follow
OCCN(CCO)c1ccc2ccccc2c1    9.83
CN(CCCNC(=O)CCCOc1cc(=O)n(C)c2ccccc12)Cc1ccccc1    4.88
COc1ccc(-c2c(N)cnc(C(=O)O)c2C)c(OCc2ccccc2)c1OC    2.47

Consider the additional compound presented here.
Quickly give me recorded inhibition for O=C1C(Cl)=C(N2CCOCC2)C(=O)N1c1ccc(Br)cc1
12.4

Measured values drawn from PubChem BioAssay AID1117319 for this set.
